Reference source for all entries: patent US10344035B2

# test.details: Pharmacokinetic study in rats
# condition.description: SD, rat, plasma, oral, 20 μmol/kg, Plasma concentration Rat 3, SD rats, intragastric 20 μmol/kg, 15 min, Rat 3
Where a name gives a salt, the structure may show the parent alone.
reported.metric: concentration at 15 min
The answer consists of two parts: a number and, after it, its unit.

*Q* Indicate its recorded concentration at 15 min; the compound in question is CNC(=O)c1ccc(-c2cnc3ncc(Cc4ccc5ncccc5c4)n3n2)cc1F [INCB28060 hydrochloride]
*A* 448 nM

* * *

# test.details: in vivo
# condition.description: SD, rat, in vivo, po, 20 umol/kg, MRT
reported.metric: MRT
Report field: quantity (unit follows the number).

*Q* Supply MRT value. Item: Cn1cc(-c2cnc3ccc(Cn4nnc5ncc(-c6cnn(C)c6)nc54)cc3c2)cn1 [crystal form A of SPH1772 ditartrate]
*A* 7.89 h

* * *

# test.details: in vivo
# condition.description: SD, rat, in vivo, po, 20 umol/kg, Tmax
reported.metric: Tmax (h)
Report the figure in h without appending any unit label.

*Q* Provide Tmax value for the following molecule: Cn1cc(-c2cnc3ccc(Cn4nnc5ncc(-c6cnn(C)c6)nc54)cc3c2)cn1 [crystal form A of SPH1772 ditartrate]
*A* 3.33

* * *

# test.details: Pharmacokinetic study in rats
# condition.description: SD (Sprague-Dawley), rat, plasma, oral, 20 μmol/kg, Plasma concentration Rat1, SD rats, intragastric 20 μmol/kg, 60 min, Rat1
Where a name gives a salt, the structure may show the parent alone.
reported.metric: concentration at 60 min (nM)
Please give a number only; it is taken to be in nM.

*Q* Answer with the recorded concentration at 60 min of CNC(=O)c1ccc(-c2cnc3ncc(Cc4ccc5ncccc5c4)n3n2)cc1F [INCB28060 hydrochloride] only.
*A* 616

* * *

# test.details: Pharmacokinetic study in rats
# condition.description: SD (Sprague-Dawley), rat, plasma, oral, 20 μmol/kg, Plasma concentration Rat1, SD rats, intragastric 20 μmol/kg, 120 min, Rat1
Structures can show the parent of a compound that is named as a salt.
reported.metric: concentration at 120 min (nM)
# value in nM; strip the unit string

*Q* Provide measured concentration at 120 min value, entry: CNC(=O)c1ccc(-c2cnc3ncc(Cc4ccc5ncccc5c4)n3n2)cc1F [INCB28060 hydrochloride]
*A* 305

* * *

# test.details: Pharmacokinetic study in rats
# condition.description: SD (Sprague-Dawley), rat, plasma, oral, 20 μmol/kg, Plasma concentration Rat 2, SD rats, intragastric 20 μmol/kg, 120 min, Rat 2
Where a name gives a salt, the structure may show the parent alone.
reported.metric: concentration at 120 min (nM)
Hi! Could you send only the number? It should be in nM, unit omitted.

*Q* Specify measured concentration at 120 min for CNC(=O)c1ccc(-c2cnc3ncc(Cc4ccc5ncccc5c4)n3n2)cc1F [INCB28060 hydrochloride] .
*A* 725

* * *

# test.details: Pharmacokinetic study in rats
# condition.description: SD (Sprague-Dawley), rat, plasma, oral, 20 μmol/kg, Plasma concentration Rat1, SD rats, intragastric 20 μmol/kg, 240 min, Rat1
# Protocol: All stock solutions of the test compound were sonicated and heated to become clarified and formulated to a 25 mM solution with DMSO. All samples were dosed at 20 μmol/kg. The blood sample was centrifuged at 8000 rpm for 5 min, the plasma was collected in a centrifuge tube and stored at −20° C. for use. Treatment of the plasma sample: the proteins in 50 μL plasma sample were precipitated with 200 μL acetonitrile containing internal standard (Propranolol (PRO), 2.5 ng/mL). […]
Where a name gives a salt, the structure may show the parent alone.
reported.metric: concentration at 240 min
Report field: quantity (unit follows the number).

*Q* Give a short answer stating reported concentration at 240 min for CNC(=O)c1ccc(-c2cnc3ncc(Cc4ccc5ncccc5c4)n3n2)cc1F [INCB28060 hydrochloride] .
*A* 465 nM
